Values were extracted from patent US9573887B2.

Listing: pIC50 of selected compounds
subject.of.test: Mouse VCP (Mus musculus)
Construct: histidine tag (N); made in house; host or cells: Sf-9 insect cells (baculovirus vector pVL1392)
measurement.notes: ATPase activity of purified His-tagged VCP, [γ-32P]ATP, liberated phosphate by liquid scintillation
Type: biochemical
condition.context: compounds of Examples; ATPase inhibitory activity; 500 ng VCP, 100 μM ATP, 37° C., 10 minutes
pIC50: −log10 of the molar value. Counter-ions that a name gives are not always drawn.

compound | pIC50
Nc1c(/N=N/c2ccccc2)cc(S(=O)(=O)O)c2ccccc12 [Example 93, sodium salt] | 6.12
Nc1c(/N=N/c2cccc(Cl)c2)cc(S(=O)(=O)O)c2ccccc12 [Example 99, sodium salt] | 5.86
Nc1c(/N=N/c2ccc(-c3ccccc3Oc3ccccc3)nc2)cc(S(=O)(=O)O)c2ccccc12 [Example 29, sodium salt] | 6.54

----------
Listing: IC50 of selected compounds
subject.of.test: Mouse VCP (Mus musculus, UniProt Q01853)
Construct: histidine tag (N); made in house; host or cells: Sf-9 insect cells (baculovirus vector pVL1392)
Sequence (Q01853 whole entry): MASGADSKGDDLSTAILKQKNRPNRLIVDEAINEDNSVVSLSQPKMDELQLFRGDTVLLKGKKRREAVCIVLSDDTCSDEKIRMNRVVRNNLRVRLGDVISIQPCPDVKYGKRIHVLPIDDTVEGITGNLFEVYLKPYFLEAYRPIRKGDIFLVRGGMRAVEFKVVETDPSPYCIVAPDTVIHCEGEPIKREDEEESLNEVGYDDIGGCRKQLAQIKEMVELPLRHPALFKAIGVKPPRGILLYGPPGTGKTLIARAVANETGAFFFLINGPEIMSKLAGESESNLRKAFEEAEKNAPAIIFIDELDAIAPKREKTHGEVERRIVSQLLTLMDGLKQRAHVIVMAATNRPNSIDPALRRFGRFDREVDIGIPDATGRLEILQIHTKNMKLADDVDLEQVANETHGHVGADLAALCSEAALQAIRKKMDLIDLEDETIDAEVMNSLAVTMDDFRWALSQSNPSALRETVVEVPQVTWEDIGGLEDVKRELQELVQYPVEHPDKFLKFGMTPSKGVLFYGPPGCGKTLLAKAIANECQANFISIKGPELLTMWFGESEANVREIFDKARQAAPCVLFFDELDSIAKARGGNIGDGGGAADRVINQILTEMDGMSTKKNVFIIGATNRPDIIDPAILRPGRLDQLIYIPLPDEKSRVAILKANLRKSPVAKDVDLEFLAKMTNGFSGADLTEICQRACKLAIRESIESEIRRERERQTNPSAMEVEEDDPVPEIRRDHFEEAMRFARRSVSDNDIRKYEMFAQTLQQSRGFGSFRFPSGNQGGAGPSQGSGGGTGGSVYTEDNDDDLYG
measurement.notes: ATPase activity of purified His-tagged VCP, [γ-32P]ATP, liberated phosphate by liquid scintillation
Type: biochemical
condition.context: compounds of Examples; ATPase inhibitory activity; 500 ng VCP, 100 μM ATP, 37° C., 10 minutes
Where a name gives a salt, the structure may show the parent alone.

compound | subject.of.test | readout.unit | IC50
Nc1c(/N=N/c2ccc(C(=O)Nc3ccccc3)cc2)cc(S(=O)(=O)O)c2ccccc12 [Example 129, sodium salt] | Mouse VCP (Mus musculus, UniProt Q01853) | nM | 1900
Nc1c(/N=N/c2ccc(C(F)(F)F)cc2)cc(S(=O)(=O)O)c2ccccc12 [Example 95, sodium salt] | Mouse VCP (Mus musculus, UniProt Q01853) | nM | 393
COCCOc1ccc(/N=N/c2cc(S(=O)(=O)O)c3ccccc3c2N)cn1 [Example 6, sodium salt] | Mouse VCP (Mus musculus, UniProt Q01853) | nM | 518
Nc1c(/N=N/c2ccc(C(=O)O)cc2)cc(S(=O)(=O)O)c2ccccc12 [Example 104, disodium salt] | Mouse VCP (Mus musculus, UniProt Q01853) | nM | 2070
CCCOc1ccccc1-c1ccc(/N=N/c2cc(S(=O)(=O)O)c3ccccc3c2N)cn1 [Example 48, sodium salt] | Mouse VCP (Mus musculus, UniProt Q01853) | nM | 127
Nc1c(/N=N/c2cccnc2-c2ccccc2)cc(S(=O)(=O)O)c2ccccc12 [Example 50, sodium salt] | Mouse VCP (Mus musculus, UniProt Q01853) | nM | 468

----------
subject.of.test: Mouse VCP (Mus musculus, UniProt Q01853)
Construct: histidine tag (N); made in house; host or cells: Sf-9 insect cells (baculovirus vector pVL1392)
measurement.notes: ATPase activity of purified His-tagged VCP, [γ-32P]ATP, liberated phosphate by liquid scintillation
Format: biochemical
condition.context: compounds of Examples; ATPase inhibitory activity; 500 ng VCP, 100 μM ATP, 37° C., 10 minutes
pIC50: −log10 of the molar value. Counter-ions that a name gives are not always drawn.
Listing: pIC50 of selected compounds

compound | pIC50
N#Cc1ccccc1/N=N/c1cc(S(=O)(=O)O)c2ccccc2c1N [Example 105, sodium salt] | 6.62
Nc1c(/N=N/c2ccc(-c3ccccc3OCCCN3C(=O)c4ccccc4C3=O)nc2)cc(S(=O)(=O)O)c2ccccc12 [Example 78, sodium salt] | 6.40
Nc1c(/N=N/c2ccc(-c3ccccc3C(F)(F)F)nc2)cc(S(=O)(=O)O)c2ccccc12 [Example 20, sodium salt] | 6.77
Nc1c(/N=N/c2ccc(OCc3cccnc3)nc2)cc(S(=O)(=O)O)c2ccccc12 [Example 3, sodium salt] | 6.55
Nc1c(/N=N/c2ccc(-c3cccc4c3S(=O)(=O)c3ccccc3-4)nc2)cc(S(=O)(=O)O)c2ccccc12 [Example 73, sodium salt] | 6.30
Nc1c(/N=N/c2ccc(-c3ccc(Cl)cc3)nc2)cc(S(=O)(=O)O)c2ccccc12 [Example 24, sodium salt] | 6.27
Nc1c(/N=N/c2ccc(-c3cccc(C(F)(F)F)c3)nc2)cc(S(=O)(=O)O)c2ccccc12 [Example 37, sodium salt] | 6.14
